assay-remarks: physchem
assay-setup: pH 6.8 buffer
Please respond with reported solubility thermodynamic at 24 h for every item in the list.
Give bare numbers, in µg/mL.

Illustrative cases are given below, each with its answer.
| compound | parameter | result-number |
| --- | --- | --- |
| CN=S(C)(=O)c1ccc(C(F)(F)F)cc1 (configuration not stated) | solubility thermodynamic at 24 h | 2400 |
| CCP(=O)(CC)c1ccncc1 | solubility thermodynamic at 24 h | 11600 |
| CNS(=N)(=O)c1ccc(C(F)(F)F)cc1 (configuration not stated) | solubility thermodynamic at 24 h | 6900 |

Batch request: solubility thermodynamic at 24 h per item, same order as input.
1. CC(C)(C)OC(=O)c1ccc(C(F)(F)F)cc1
2. O=P1(c2ccc(C(F)(F)F)cc2)CCCCC1
3. CC(C)P(=O)(c1ccc(C(F)(F)F)cc1)C(C)C
4. COP(=O)(OC)c1ccc(C(F)(F)F)cc1

# output
1. 20
2. 7700
3. 22200
4. 10100
